experimental protocol: qHTS assay for small molecule agonists of the p53 signaling pathway (AID 651631); also: nearly all actives have a fitted effect of over 15% in size
details: HCT-116 p53RE-bla reporter, beta-lactamase FRET ratio, 16 h; series mostly up to 73.3 µM
Records with an inconclusive call do not appear. Activity calls are given as the source filed them. Calls follow the shape of the full dose curve.
Outcomes: 1 (yes) = active, 0 (no) = inactive

molecule	label class
Cc1ccc(N(CCO)CCO)cc1	0 (no)
CC(C)(C)NCC(O)COc1cccc2c1C[C@H](O)[C@H](O)C2 (stereo partly drawn)	0 (no)
O=C(O)CCS	0 (no)
C=C(C)c1ccccc1	0 (no)
ClC1=C(Cl)C1(Cl)Cl	0 (no)
COc1ccc(-c2cc(=S)ss2)cc1	0 (no)
Nc1nc2ccc(OC(F)(F)F)cc2s1	1 (yes)
BrC(Br)C(Br)Br	0 (no)
CC(CO)(CO)C(=O)O	0 (no)
COc1ccc(C)cc1	0 (no)
CCOCCC(=O)OCC	0 (no)
C[C@@H]1[C@H](O)[C@@H](C)/C=C/C=C\C=C\C=C\C=C\C=C\C=C\[C@H](O[C@@H]2O[C@H](C)[C@@H](O)[C@H](N)[C@@H]2O)C[C@@H]2O[C@](O)(C[C@@H](O)C[C@@H](O)[C@H](O)CC[C@@H](O)C[C@@H](O)CC(=O)O[C@H]1C)C[C@H](O)[C@H]2C(=O)O (stereo in doubt)	0 (no)
Cc1cn([C@H]2C[C@H](F)[C@@H](CO)O2)c(=O)[nH]c1=O	0 (no)
CCC(CO)(CO)[N+](=O)[O-]	0 (no)
CNCc1ccc(NC(=O)c2c[nH]c3c2C(=O)CCC3)cc1	0 (no)
C1CCCCC1	0 (no)
CC(C)(C(=O)c1cccnc1)c1cccnc1	0 (no)
O=c1[nH][nH]c(=O)c2cc([N+](=O)[O-])ccc12	0 (no)
c1ccc2sc(SSc3nc4ccccc4s3)nc2c1	0 (no)
O=S(=O)(Cl)c1c(Cl)cccc1Cl	0 (no)
O=C(O)c1ccc(O)cc1O	0 (no)
CSSc1ccoc1C	0 (no)
CCCCCCCC(=O)OCCCCCC	0 (no)
CCOC(=O)C(C)O (stereo not drawn)	0 (no)
CC(C)(O)CCc1ccccc1	0 (no)
CC(C)C(=O)OCCOc1ccccc1	0 (no)
C[C@H](CS)C(=O)N1CCC[C@H]1C(=O)O	0 (no)
COc1ccc(C(=O)NCc2ccc(OCCN(C)C)cc2)cc1OC	0 (no)

* * *

system tested: Luciferin 4-monooxygenase (Photinus pyralis)
experimental protocol: qHTS assay to identify small molecule inhibitors of firefly luciferase (AID 1224835); also: nearly all actives have a fitted effect of over 25% in size
details: purified P. pyralis luciferase, luminescence inhibition; series mostly up to 115 µM
Source text: U.S. Tox21 Program National Center for Advancing Translational Sciences [NCATS] NIH Chemical Genomics Center [NCGC] U.S. Environmental Protection Agency [EPA] National Institutes of Environmental Health Sciences [NIEHS] National Toxicology Program [NTP] U.S. Food and Drug Administration [FDA] Tox21 Assay Overview: Firefly (Photinus pyralis) luciferase is one of the most commonly used transcriptional reporters. […]
Records with an inconclusive call do not appear. Activity calls are given as the source filed them. Calls come from the whole dose curve; as a rule, active = well fitted inhibition curve with a large enough effect in the repeat runs; inconclusive = weak or mixed curves; inactive = flat fitted curve, though single readings scatter.
Outcomes: active, inactive

molecule	label class
CC(CCc1ccc(O)cc1)NCCc1ccc(O)c(O)c1 (centres undefined)	inactive
CC(=O)c1ccc[nH]1	inactive
FC(F)(F)C(F)(F)C(F)(F)C(F)(F)CCI	inactive
CCCCCCC(O)CCCCCCCCCCC(=O)OC (centres undefined)	inactive
CC(C)(O)c1coc(S(=O)(=O)NC(=O)Nc2c3c(cc4c2CCC4)CCC3)c1	inactive
Cc1c(C2(c3cc(Br)c(O)c(Br)c3C)OS(=O)(=O)c3ccccc32)cc(Br)c(O)c1Br	active
O=C(O)CCC(=O)c1ccc(-c2ccccc2)cc1	active
O=C(/C=C/c1ccc([N+](=O)[O-])cc1)c1ccccc1	active
OCC(CO)n1cnc(-c2ccc(F)cc2)c1-c1ccnc(Oc2ccccc2)n1	inactive
CN(C)CC/C=C1\c2ccccc2Sc2ccc(Cl)cc21	inactive
CCOC(=O)Oc1ccc(CCNC(=O)[C@H](CCSC)NC(C)=O)cc1OC(=O)OCC	inactive
COC(=O)c1sccc1S(N)(=O)=O	inactive
CCNc1nc(N)nc(Cl)n1	inactive
Cc1ccccc1S(N)(=O)=O	inactive
Nc1ccn([C@H]2CS[C@@H](CO)O2)c(=O)n1	inactive
CC[C@H]1OC(=O)[C@H](C)[C@@H](O[C@H]2C[C@@](C)(OC)[C@@H](O)[C@H](C)O2)[C@H](C)[C@@H](O[C@@H]2O[C@H](C)C[C@H](N(C)C)[C@H]2O)[C@](C)(O)C[C@@H](C)/C(=N\OCOCCOC)[C@H](C)[C@@H](O)[C@]1(C)O	inactive
CCCCC(CC)COS(=O)(=O)O (centres undefined)	inactive
CSCC[C@H](NC(=O)[C@H](Cc1c[nH]c2ccccc12)NC(=O)CCNC(=O)OC(C)(C)C)C(=O)N[C@@H](CC(=O)O)C(=O)N[C@@H](Cc1ccccc1)C(N)=O	inactive
CCN(CC)CCOC(=O)C(c1ccccc1)c1ccccc1	inactive
COc1cc(NS(=O)(=O)c2ccc(N)cc2)nc(C)n1	inactive
Oc1ccc2c(c1)Cc1ccccc1-2	active
CC(=O)C(C)=O	inactive
CC1=CC[C@@]23C[C@@H]1C(C)(C)[C@@H]2CC[C@H]3C	inactive
CCCCCCCCCCCCCC(=O)OCC(O)CO (centres undefined)	inactive
Nc1ccc(F)cc1	inactive
COc1ccc(-c2cc(=S)ss2)cc1	active
O=[N+]([O-])C1(Br)COCOC1	active
O=C(O)c1cccc(C[C@@H]2COc3ccc(OCc4nc5cc(F)ccc5s4)cc3[C@@H]2O)c1	inactive
Cc1ccc(N(CCO)CCO)cc1	inactive
CC1CCCC(=O)C1=O (centres undefined)	inactive
c1ccc2sc(SSc3nc4ccccc4s3)nc2c1	active
COc1ccc(C(=O)NCc2ccc(OCCN(C)C)cc2)cc1OC	inactive
SCCc1cnccn1	inactive
CC(C)(C(=O)c1cccnc1)c1cccnc1	inactive
CCC(CO)(CO)[N+](=O)[O-]	inactive
COc1ccc(-c2cc(C(F)F)nn2-c2ccc(S(N)(=O)=O)cc2)cc1F	inactive
O=C1NC(=O)c2cccc3cccc1c23	inactive
COC1CCC=CO1 (centres undefined)	inactive
CC(CN(CCN(CC(C)OCCO)CC(C)OCCO)CC(C)OCCO)OCCO (centres undefined)	inactive
O=C(O)CO	inactive
COc1cc(OC)c2ccc(=O)oc2c1	inactive
CN1CCCN(C(c2ccccc2)c2ccc(Cl)cc2)CC1 (centres undefined)	inactive
O=NN(CCCl)C(=O)NCCCl	inactive
C[C@@H]1C[C@H]2[C@@H]3CCC4=CC(=O)C=C[C@]4(C)[C@@]3(F)[C@@H](O)C[C@]2(C)[C@@]1(O)C(=O)COP(=O)(O)O	inactive
CC[C@@H](CO)NCCN[C@@H](CC)CO	inactive
COc1ccc(C)cc1	inactive
Cc1ccc(Nc2c(F)cccc2Cl)c(CC(=O)O)c1	inactive
C/C(C=O)=C\c1ccccc1	inactive
CCCCCCCC(=O)Oc1c(Br)cc(C#N)cc1Br	inactive
